study target: HIV-1 Env of 191821.E6.1 (HIV-1)
test: cell-based or functional assay
Task for the reader: assign each of the following binders its reported neutralization IC50.

Query block: Which neutralization IC50 value is on record for CAP256-VRC26.04 (antibody, V domains shown) VH: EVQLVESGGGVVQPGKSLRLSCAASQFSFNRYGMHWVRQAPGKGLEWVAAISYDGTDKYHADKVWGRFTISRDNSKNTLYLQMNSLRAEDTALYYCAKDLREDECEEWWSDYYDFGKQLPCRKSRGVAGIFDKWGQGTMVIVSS VL: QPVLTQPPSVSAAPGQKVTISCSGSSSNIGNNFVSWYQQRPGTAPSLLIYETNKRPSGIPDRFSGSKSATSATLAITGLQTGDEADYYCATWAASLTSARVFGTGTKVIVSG ?
Result block: > 50 µg/mL

Query block: Which neutralization IC50 value is on record for CAP256-VRC26.11 (antibody, V domains shown) VH: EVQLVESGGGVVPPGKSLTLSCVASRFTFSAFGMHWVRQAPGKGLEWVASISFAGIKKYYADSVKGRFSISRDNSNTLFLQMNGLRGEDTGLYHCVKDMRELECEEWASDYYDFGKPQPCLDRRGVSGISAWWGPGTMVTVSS VL: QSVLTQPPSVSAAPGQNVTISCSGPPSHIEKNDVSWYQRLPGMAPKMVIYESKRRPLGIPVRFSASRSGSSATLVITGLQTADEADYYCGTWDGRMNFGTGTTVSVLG ?
Result block: > 50 µg/mL

Query block: Which neutralization IC50 value is on record for CAP256-VRC26.10 (antibody, V domains shown) VH: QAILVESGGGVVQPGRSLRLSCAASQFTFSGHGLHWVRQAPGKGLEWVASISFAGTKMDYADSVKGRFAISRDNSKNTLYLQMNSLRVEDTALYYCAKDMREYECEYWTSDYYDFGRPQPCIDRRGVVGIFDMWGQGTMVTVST VL: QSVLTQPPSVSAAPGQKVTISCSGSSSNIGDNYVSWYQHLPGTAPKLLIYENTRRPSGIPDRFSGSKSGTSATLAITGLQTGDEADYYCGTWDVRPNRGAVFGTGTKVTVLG ?
Result block: > 50 µg/mL
